Target: hTRPM8 (Homo sapiens, UniProt Q7Z2W7)
Construct: expressed in transfected cells
Sequence (Q7Z2W7 whole entry): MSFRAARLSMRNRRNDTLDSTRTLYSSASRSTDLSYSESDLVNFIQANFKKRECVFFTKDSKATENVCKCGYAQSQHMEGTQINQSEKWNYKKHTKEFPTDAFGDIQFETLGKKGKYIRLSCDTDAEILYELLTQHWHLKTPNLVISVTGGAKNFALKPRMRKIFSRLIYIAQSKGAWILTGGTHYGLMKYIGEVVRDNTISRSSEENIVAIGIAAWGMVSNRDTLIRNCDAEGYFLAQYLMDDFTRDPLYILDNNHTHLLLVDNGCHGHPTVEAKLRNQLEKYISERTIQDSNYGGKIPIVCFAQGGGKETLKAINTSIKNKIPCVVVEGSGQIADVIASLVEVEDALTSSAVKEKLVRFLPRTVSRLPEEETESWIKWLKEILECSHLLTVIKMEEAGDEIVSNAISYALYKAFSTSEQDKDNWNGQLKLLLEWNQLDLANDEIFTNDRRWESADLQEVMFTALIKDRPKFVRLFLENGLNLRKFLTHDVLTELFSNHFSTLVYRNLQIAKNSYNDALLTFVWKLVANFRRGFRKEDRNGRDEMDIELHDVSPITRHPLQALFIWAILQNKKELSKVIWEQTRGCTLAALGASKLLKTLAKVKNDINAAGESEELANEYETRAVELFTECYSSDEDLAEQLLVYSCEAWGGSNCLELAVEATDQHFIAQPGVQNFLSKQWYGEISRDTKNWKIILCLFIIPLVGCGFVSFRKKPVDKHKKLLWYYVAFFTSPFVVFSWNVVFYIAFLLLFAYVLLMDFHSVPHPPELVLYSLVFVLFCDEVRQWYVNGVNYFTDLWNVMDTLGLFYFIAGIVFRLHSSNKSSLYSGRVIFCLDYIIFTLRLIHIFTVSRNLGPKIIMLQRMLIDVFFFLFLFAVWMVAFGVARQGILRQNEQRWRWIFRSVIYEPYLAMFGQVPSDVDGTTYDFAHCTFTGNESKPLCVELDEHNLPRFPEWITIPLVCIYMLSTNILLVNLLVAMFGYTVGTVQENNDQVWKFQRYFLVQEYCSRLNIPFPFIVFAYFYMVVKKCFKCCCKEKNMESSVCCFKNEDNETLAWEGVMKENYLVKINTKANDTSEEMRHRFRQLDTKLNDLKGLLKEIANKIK
Assay: Assay on TRPM8 modulators: calcium imaging (Fluo-4, Flexstation) in HEK293 cell line stably expressing hTRPM8
Type: cell-based
Settings: HEK293 cells stably expressing hTRPM8, calcium influx, sigmoidal dose-response fit; read-out: EC50
Experimental: A HEK293 cell line stably expressing hTRPM8 was generated according to Klein et al., (Chem. Senses 36: 649-658, 2011) and receptor activation was monitored by calcium imaging in a Flexstation. […] On day 2, agonists were evaluated via calcium imaging using Fluo-4. […] The cells were then washed five times with 100 μL assay buffer and then calcium influx to serial dilutions of inventive compounds were measured in a Flexstation 3 (Molecular Devices). […]
pEC50: −log10 of the molar value.
Below, each of the compounds is paired with its reported pEC50 value.
Measure: pEC50

C[C@H]1C[C@@](C)(c2ccc(C#N)cc2)C[C@@H]2[C@@H]1N(C)OC2(C)C (racemic) [Compound 131] :: 6.52 to 7.30
COc1cc(F)ccc1[C@@]1(C)C[C@@H]2[C@@H]([C@@H](C)C1)N(C)OC2(C)C (racemic) [Compound 99] :: > 7.30
C[C@H]1C[C@@](C)(c2ccc3c(c2)OCO3)C[C@@H]2[C@@H]1N(C)OC2(C)C (racemic) [Compound 109] :: 6.00 to 6.52
C[C@H]1C[C@@](C)(c2ccc(F)cc2F)C[C@@H]2[C@@H]1N(C)OC2(C)C (racemic) [Compound 70] :: 6.52 to 7.30
Cc1ccc(C)c([C@H]2C[C@@H]3[C@@H]([C@@H](C)C2)N(C)OC3(C)C)c1 (racemic) [Compound 75] :: 6.00 to 6.52
Cc1cc(C)cc([C@@]2(C)C[C@@H]3[C@@H]([C@@H](C)C2)N(C)OC3(C)C)c1 (racemic) [Compound 87] :: 6.00 to 6.52
CCN1OC(C)(C)[C@@H]2C[C@](C)(CC=C(C)C)C[C@H](C)[C@H]21 (racemic) [Compound 53] :: 6.52 to 7.30
C[C@H]1C[C@@](C)(c2cccc3ccccc23)C[C@@H]2[C@@H]1N(C)OC2(C)C (racemic) [Compound 44] :: 6.00 to 6.52
COc1ccccc1[C@H]1C[C@@H]2[C@@H]([C@@H](C)C1)N(C(C)C)OC2(C)C (racemic) [Compound 66] :: > 7.30
Cc1ccc(C(F)(F)F)cc1[C@@]1(C)C[C@@H]2[C@@H]([C@@H](C)C1)N(C)OC2(C)C (racemic) [Compound 39] :: 6.00 to 6.52
COc1ccc([C@@]2(C)C[C@@H]3[C@@H]([C@@H](C)C2)N(C)OC3(C)C)cc1 (racemic) [Compound 104] :: 6.00 to 6.52
COC(=O)c1ccc(C)c([C@@]2(C)C[C@@H]3[C@@H]([C@@H](C)C2)N(C)OC3(C)C)c1 (racemic) [Compound 137] :: 6.52 to 7.30
CC1CC(C)C2C(C1)C(C)(C)ON2C (stereo not drawn) [Compound 4] :: 4.46 to 6.00
Cc1ccc(F)cc1[C@@]1(C)C[C@@H]2[C@@H]([C@@H](C)C1)N(C)OC2(C)C (racemic) [Compound 107] :: > 7.30
C[C@H]1C[C@@](C)(c2cc(F)cc(C(F)(F)F)c2)C[C@@H]2[C@@H]1N(C)OC2(C)C (racemic) [Compound 91] :: 6.00 to 6.52
Cc1ccc(Cl)cc1[C@H]1C[C@@H]2[C@@H]([C@@H](C)C1)N(C(C)C)OC2(C)C (racemic) [Compound 106] :: 6.00 to 6.52
Cc1ccc([C@H]2C[C@@H]3[C@@H]([C@@H](C)C2)N(C)OC3(C)C)c(C)c1 (racemic) [Compound 72] :: 6.52 to 7.30
Cc1cccc(C)c1[C@@]1(C)C[C@@H]2[C@@H]([C@@H](C)C1)N(C)OC2(C)C (racemic) [Compound 76] :: 6.00 to 6.52

----------
Below, each of the compounds is paired with its reported EC50 value.
Target: hTRPM8 (Homo sapiens, UniProt Q7Z2W7)
Construct: expressed in transfected cells
Experiment: Assay on TRPM8 modulators: calcium imaging (Fluo-4, Flexstation) in HEK293 cell line stably expressing hTRPM8
Type: cell-based
Details: HEK293 cells stably expressing hTRPM8, calcium influx, sigmoidal dose-response fit; read-out: EC50
Description: A HEK293 cell line stably expressing hTRPM8 was generated according to Klein et al., (Chem. Senses 36: 649-658, 2011) and receptor activation was monitored by calcium imaging in a Flexstation. […] On day 2, agonists were evaluated via calcium imaging using Fluo-4. […] The cells were then washed five times with 100 μL assay buffer and then calcium influx to serial dilutions of inventive compounds were measured in a Flexstation 3 (Molecular Devices). […]
Measure: EC50

CCc1ccccc1[C@@]1(C)C[C@@H]2[C@@H]([C@@H](C)C1)N(C)OC2(C)C (racemic) :: 50 to 300 nM
C[C@H]1C[C@@](C)(c2ccc3ccccc3c2)C[C@@H]2[C@@H]1N(C)OC2(C)C (racemic) :: 50 to 300 nM
C[C@H]1C[C@@H](c2ccc(C(C)(C)C)cc2)C[C@@H]2[C@@H]1N(C)OC2(C)C (racemic) :: 1000 to 35000 nM
C[C@H]1C[C@@](C)(c2ccc(F)c(F)c2)C[C@@H]2[C@@H]1N(C)OC2(C)C (racemic) :: 50 to 300 nM
COc1cccc([C@@]2(C)C[C@@H]3[C@@H]([C@@H](C)C2)N(C)OC3(C)C)c1 (racemic) :: 50 to 300 nM
CC(C)=CC[C@]1(C)CC[C@@H]2[C@@H](C1)C(C)(C)ON2C (racemic) :: 300 to 1000 nM
CCC1(CC)C[C@@H]2[C@@H]([C@@H](C)C1)N(C)OC2(C)C (racemic) :: 1000 to 35000 nM
Cc1cc(F)ccc1[C@@]1(C)C[C@@H]2[C@@H]([C@@H](C)C1)N(C)OC2(C)C (racemic) :: < 50 nM
CCCC[C@@H]1CC[C@@H]2[C@@H](C1)C(C)(C)ON2C(C)C (racemic) :: 1000 to 35000 nM
